Would you mind telling me the reported pIC50 of each entry?
Experimental Target: human type 1 glycine transporter (GlyT1) (Homo sapiens, UniProt P48067)
Construct: T98G cells (glioma cells) expressing human type 1 glycine transporter (GlyT1) were used; endogenous in cells; host or cells: T98G cells (human glioma cells)
Procedure Details: Glycine uptake inhibition experiment ([3H] glycine uptake in T98G cells expressing GlyT1)
Assay type: cell-based
Run Parameters: glycine uptake inhibition
# pIC50 = -log10(concentration in molar units)

Please indicate pIC50 recorded for "O=C1N(Cc2nc3ccccc3[nH]c2=O)c2cccc([C@@H](O)C(F)(F)F)c2C1(F)F"
7.48

Please indicate pIC50 recorded for "C[C@H](O)c1cccc2c1C(F)(F)C(=O)N2Cc1cncc(Cl)n1"
7.92

Please indicate pIC50 recorded for "C[C@@H](O)c1cccc2c1C(F)(F)C(=O)N2Cc1ccnc(F)c1"
5.36

Please indicate pIC50 recorded for O=C1N(Cc2cncc(Cl)c2)c2ccc(F)c(C(O)C(F)(F)F)c2C1(F)F (single isomer, unassigned) [Compound 50]
6.77

###

Experimental Target: human type 1 glycine transporter (GlyT1) (Homo sapiens, UniProt P48067)
Construct: T98G cells (glioma cells) expressing human type 1 glycine transporter (GlyT1) were used; endogenous in cells; host or cells: T98G cells (human glioma cells)
Procedure Details: Glycine uptake inhibition experiment ([3H] glycine uptake in T98G cells expressing GlyT1)
Type: cell-based
Run Parameters: glycine uptake inhibition
Description: Glycine Uptake Inhibition Experiment A glycine uptake experiment was conducted in accordance with the method published in Neuron, 8, 927-935, 1992. In the experiment, T98G cells (glioma cells) expressing human type 1 glycine transporter (GlyT1) were used. The T98G cells were seeded in a 96-well plate at 2.0×10^4 cells/well and cultured overnight in a CO2 incubator. […] The glycine content in the cells was determined by measuring the radioactivity in the cell lysate with a liquid scintillation counter. […]
Measure: log10 of IC50 (log10 of the value in nM)
Plainly stated, the numbers are log10 of IC50 given in nM.

Please indicate log10 of IC50 recorded for C[C@H](O)c1cccc2c1C(F)(F)C(=O)N2Cc1nnc2ccccc2n1 [Compound 105]
3.00

Please indicate log10 of IC50 recorded for C[C@H](O)c1cccc2c1C(F)(F)C(=O)N2Cc1ccc(C#N)cn1 [Compound 113]
2.97

Please indicate log10 of IC50 recorded for N#Cc1cc(CN2C(=O)C(F)(F)c3c(C(O)C(F)(F)F)cccc32)ccn1 (single isomer, unassigned) [Compound 20]
3.46

Please indicate log10 of IC50 recorded for O=C1N(Cc2cnc3ccccc3c2)c2cccc(C(O)C(F)F)c2C1(F)F (single isomer, unassigned) [Compound 143]
1.68

Please indicate log10 of IC50 recorded for C[C@H](O)c1cccc2c1C(F)(F)C(=O)N2Cc1ccnc(C#N)c1 [Compound 40]
1.58

Please indicate log10 of IC50 recorded for O=C1N(Cc2ccnc(C(F)F)c2)c2cccc([C@@H](O)C(F)(F)F)c2C1(F)F [Compound 139]
1.65

Please indicate log10 of IC50 recorded for C[C@@H](O)c1cccc2c1C(F)(F)C(=O)N2Cc1ccnc(C#N)c1 [Compound 38]
3.72

Please indicate log10 of IC50 recorded for COc1cncc(CN2C(=O)C(F)(F)c3c([C@H](C)O)cccc32)c1 [Compound 71]
2.20
